- Test system: NCI-H322M lung
- PROTOCOL DETAILS: NCI-60 one-dose screen, 48 h
- STATED CONDITIONS: 10 µM unless noted
Compounds without any hit were thinned out: in the full panel of roughly 83,000, 20% have a hit. The source made the active and inactive calls. The calls were made as follows: active = growth percent below 10; inactive = the rest.
Give one outcome, nothing more. List: Y for active, N for inactive

Worked examples, 6 compounds total:
COMPOUND	CATEGORY
N#Cc1c(NC(=O)c2ccccc2C(F)(F)F)sc2c1CCC(=O)C2	N
COc1ccc([C@H]2[C@H](O)C(=O)N2c2cc(OC)c(OC)c(OC)c2)cc1Cl	N
CC1OC(O[C@@H]2[C@H](O)C(CO)OC(O[C@H]3COC(O[C@H]4CC[C@]5(C)[C@H]6CC[C@]78OC[C@@]9(CCC(C)(C)C[C@H]97)[C@H](O)C[C@@]8(C)[C@]6(C)CC[C@H]5C4(C)C)[C@@H](OC4OC(CO)[C@@H](O)[C@@H](O)[C@@H]4O)[C@@H]3O)[C@H]2OC2OC[C@@H](O)[C@@H](O)[C@@H]2O)[C@@H](O)[C@@H](O)[C@H]1O (some centres not stated)	Y
O=C1c2c(c3c4cc(Br)ccc4[nH]c3c3ccc4ccccc4c23)C(=O)N1CCN1CCCCC1	N
COc1ccc([C@@H]2[C@@H](O)C(=O)N2c2cc(OC)c(OC)c(OC)c2)cc1Cl	N
O=c1[nH]c(CNc2ccc(NCc3c(-c4ccccc4)no[n+]3[O-])cc2)nc2c1cnn2-c1ccccc1	N

Could you kindly confirm the outcome this assay logged for `O=C(NCCCNc1cc(-c2cn(-c3ccccc3)nc2-c2cccc(O)c2)ccn1)Nc1cccc(C(F)(F)F)c1` ? N
